target: Phospholipase A2 group IB (Sus scrofa); test: In vitro activity against porcine pancreatic phospholipase-A2 (PLA2) and micellar substrate with deoxycholate (DOC)
Entries and their IC50 values follow.
// units = µM; emit number, no label

The compound listed as CCCCCC/C=C/CC(=O)N[C@@H](CC(=O)O)CC(C)C shows IC50 equal to 8.5

The compound listed as CCCCCCCCCC(=O)N[C@@H](CC(=O)O)CC(C)C shows IC50 equal to 15

The compound listed as CCCCCC/C=C/CC(=O)N[C@H](CSc1ccccc1)CC(=O)O shows IC50 equal to 2.2

The compound listed as CCCCCC/C=C/CC(=O)N[C@H](CSc1ccc2ccccc2c1)CC(=O)O shows IC50 equal to 0.79

The compound listed as CCCCCCCCCCCCCCCC(=O)N[C@@H](CCCC(=O)O)CC(C)C shows IC50 equal to 19

The compound listed as CCCCCCCCCCCCCCCC(=O)N[C@@H](CC(=O)O)CC(C)C shows IC50 equal to 7.3

The compound listed as CCCCCCCCCCCCCCCC(=O)N[C@@H](CCC(=O)O)CC(C)C shows IC50 equal to 4.5
